Test system: T. mentagrophytes
Assay: Antifungal activity: Minimum Inhibitory Concentration
Type: cell-based, Trichophyton mentagrophytes NCPF 410
Settings: Trichophyton mentagrophytes, T. mentagrophytes, Day 1; 27° C., one week; read-out: Minimum Inhibitory Concentration
REPORTED_PROPERTY: MIC

// solved cases for MIC follow
INSERT INTO results (compound, target_entity, reported_property, value_observed) VALUES
  ('C=CCn1c(C)cc(C)[n+]1CCCCCCCCCCCCCCCC.[Br-] [Example 7]', 'T. mentagrophytes', 'MIC', '1 µg/mL'),
  ('CCCCCCCCCCCCCCn1ccc[n+]1C [Example 3-G]', 'T. mentagrophytes', 'MIC', '1 µg/mL'),
  ('CCCCCCCCCCCCCCCCn1c(C)cc(C)[n+]1C [Example 2]', 'T. mentagrophytes', 'MIC', '1 µg/mL'),
  ('CCCCCCCCCCCCn1ccc[n+]1C [Example 3-E]', 'T. mentagrophytes', 'MIC', '1 µg/mL'),
  ('CCCCCCCCCCCCn1c(C)cc(C)[n+]1C [Example 1]', 'T. mentagrophytes', 'MIC', '50 µg/mL');

Determine from records and report MIC for CCCCCCCCCCCC[n+]1c(C)cc(C)n1Cc1ccc(Cl)cc1.[Br-] [Example 6-E] 5 µg/mL

Provide measured MIC value, entry: CCCCCCCCCCCCCC[n+]1c(C)cc(C)n1Cc1ccc([N+](=O)[O-])cc1.[Br-] [Example 6-D] 10 µg/mL

Give me measured MIC, please, for this compound: CCCCCCCCCCCC[n+]1c(C)cc(C)n1Cc1ccc(Cl)cc1Cl.[Br-] [Example 6-B] 1 µg/mL

Given the compound CCCCCCCCCCCCCCCCn1ccc[n+]1C [Example 3-D] , write its reported MIC. 1 µg/mL

###

In this section we review reported MIC values for a set of compounds.
Tested on: A. corymbifera
Assay: Antifungal activity: Minimum Inhibitory Concentration
Assay type: cell-based, Absidia corymbifera NCPF 2001
Details: Lichtheimia corymbifera, A. corymbifera, Day 1; 27° C., one week; read-out: Minimum Inhibitory Concentration
Kindly answer with a numeric value in µg/mL, unit omitted.

// below: answered compounds
INSERT INTO results (structure_smiles, unit_of_measure, value_observed) VALUES
  ('CCCCCCCCCCCCCC[n+]1c(C)cc(C)n1Cc1ccc([N+](=O)[O-])cc1.[Br-]', 'µg/mL', 50),
  ('C=CCn1c(C)cc(C)[n+]1CCCCCCCCCCCCCCCC.[Br-]', 'µg/mL', 5),
  ('CCCCCCCCCCCCCCCCn1ccc[n+]1C', 'µg/mL', 10),
  ('CCCCCCCCCCCC[n+]1c(C)cc(C)n1Cc1ccc(Cl)cc1Cl.[Br-]', 'µg/mL', 10),
  ('CCCCCCCCCCCC[n+]1c(C)cc(C)n1Cc1ccc(Cl)cc1.[Br-]', 'µg/mL', 10),
  ('CCCCCCCCCCCCn1ccc[n+]1C', 'µg/mL', 100),
  ('CCCCCCCCCCCCCCn1ccc[n+]1C', 'µg/mL', 10);

Next compound, please.
// output MIC; input `CCCCCCCCCCCCCCCCn1c(C)cc(C)[n+]1C` ; system A. corymbifera 50

###

System: T. rubrum
Experiment: Antifungal activity: Minimum Inhibitory Concentration
Format: cell-based, Trichophyton rubrum NCPF 197
Conditions: Trichophyton rubrum, T. rubrum, Day 2; 27° C., one week; read-out: Minimum Inhibitory Concentration
REPORTED_PROPERTY: MIC (µg/mL)
Respond with the bare value in µg/mL.

Worked cases, MIC given:
INSERT INTO assay_data (structure_smiles, unit_of_measure, value_observed) VALUES
  ('CCCCCCCCCCCCCCn1ccc[n+]1C', 'µg/mL', 5),
  ('CCCCCCCCCCCCCCCCn1c(C)cc(C)[n+]1C', 'µg/mL', 5),
  ('CCCCCCCCCCCCn1c(C)cc(C)[n+]1C', 'µg/mL', 10),
  ('C=CCn1c(C)cc(C)[n+]1CCCCCCCCCCCCCCCC.[Br-]', 'µg/mL', 1),
  ('CCCCCCCCCCCCCCCCn1ccc[n+]1C', 'µg/mL', 1);

With those in mind, consider the next compound.
Retrieve MIC measured for `CCCCCCCCCCCCn1ccc[n+]1C` and print it. 5
